- ASSAYED_SYSTEM: proton, potassium-adenosine triphosphatase (H+,K+-ATPase) (Sus scrofa, UniProt P19156)
- Construct: a gastric mucous membrane microsomal fraction was prepared from the stomach of swine
- Sequence (P19156 2-1034): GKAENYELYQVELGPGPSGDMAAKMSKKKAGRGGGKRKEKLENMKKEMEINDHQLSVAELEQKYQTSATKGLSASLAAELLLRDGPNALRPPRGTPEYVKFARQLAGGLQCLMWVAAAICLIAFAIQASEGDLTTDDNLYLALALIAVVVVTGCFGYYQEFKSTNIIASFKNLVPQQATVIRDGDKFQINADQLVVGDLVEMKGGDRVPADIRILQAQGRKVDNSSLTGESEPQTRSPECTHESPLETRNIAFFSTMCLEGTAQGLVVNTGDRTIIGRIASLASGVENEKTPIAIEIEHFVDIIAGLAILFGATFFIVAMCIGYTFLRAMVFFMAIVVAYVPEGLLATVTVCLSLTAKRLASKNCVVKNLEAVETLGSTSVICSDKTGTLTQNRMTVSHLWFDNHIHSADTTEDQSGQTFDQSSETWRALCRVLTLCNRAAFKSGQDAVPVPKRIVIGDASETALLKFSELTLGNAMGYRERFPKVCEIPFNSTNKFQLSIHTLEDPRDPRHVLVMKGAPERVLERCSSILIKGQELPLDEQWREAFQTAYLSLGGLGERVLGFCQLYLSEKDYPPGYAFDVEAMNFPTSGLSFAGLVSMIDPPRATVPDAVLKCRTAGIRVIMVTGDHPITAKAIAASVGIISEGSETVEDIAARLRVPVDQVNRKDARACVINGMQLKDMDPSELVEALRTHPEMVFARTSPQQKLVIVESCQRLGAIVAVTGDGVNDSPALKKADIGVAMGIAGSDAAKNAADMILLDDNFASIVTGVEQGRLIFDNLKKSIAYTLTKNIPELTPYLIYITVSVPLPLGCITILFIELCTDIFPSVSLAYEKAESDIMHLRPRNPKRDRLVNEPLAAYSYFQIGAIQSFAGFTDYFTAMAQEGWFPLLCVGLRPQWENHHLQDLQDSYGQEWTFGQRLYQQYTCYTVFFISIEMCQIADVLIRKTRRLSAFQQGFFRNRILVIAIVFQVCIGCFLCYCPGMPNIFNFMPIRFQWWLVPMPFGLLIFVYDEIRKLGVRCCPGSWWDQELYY
- Sequence (P18434 whole entry partner): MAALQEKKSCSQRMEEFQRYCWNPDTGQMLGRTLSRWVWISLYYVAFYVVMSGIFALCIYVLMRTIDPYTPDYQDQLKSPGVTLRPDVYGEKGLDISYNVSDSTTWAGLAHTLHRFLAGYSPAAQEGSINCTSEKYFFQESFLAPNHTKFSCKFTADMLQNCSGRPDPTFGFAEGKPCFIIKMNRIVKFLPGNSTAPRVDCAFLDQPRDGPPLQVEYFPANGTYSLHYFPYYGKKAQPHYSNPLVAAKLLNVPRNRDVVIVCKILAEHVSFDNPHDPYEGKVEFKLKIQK
- ASSAY_PROTOCOL: Proton potassium-adenosine triphosphatase (H+,K+-ATPase) inhibitory activity test
- Assay type: biochemical
- TEST_CONDITIONS: swine gastric mucous membrane microsomal fraction, pH 6.5, 37° C., 10 mmol/L potassium chloride
- Procedure: Proton Potassium-Adenosine Triphosphatase (H^+,K^+-ATPase) Inhibitory Activity Test According to the method [Biochim. Biophys. Acta, 728, 31 (1983)] of Wallmark et al., a gastric mucous membrane microsomal fraction was prepared from the stomach of swine. First, the stomach was removed, washed with tap water, and immersed in 3 mol/L brine, and the surface of the mucous membrane was wiped with a paper towel. […]
pIC50: −log10 of the molar value. Counter-ions that a name gives are not always drawn.
Entries annotated with measured pIC50

| MOLECULE | pIC50 |
| --- | --- |
| CNCc1cc(S(=O)(=O)c2cccc(C#N)c2)n(-c2ccccc2Cl)n1 [Example 86, hydrochloride] | 7.08 |
| CNCc1cc(S(=O)(=O)c2ccc(C)nc2)n(-c2ccccc2Cl)n1 [Example 89] | 6.96 |
| CNCc1cc(-c2ccccc2F)c(S(=O)(=O)c2ccccc2)s1 [Example 19, hydrochloride] | 7.06 |
| CNCc1cc(S(=O)(=O)c2cccnc2)n(-c2ccccc2F)n1 [Example 81] | 6.89 |
| CNCc1cn(S(=O)(=O)c2cccs2)c(-c2ccccc2F)n1 [Example 18, fumarate] | 7.19 |
| CNCc1cc(S(=O)(=O)c2ccccc2)n(-c2cccnc2F)n1 [Example 79] | 6.72 |
| CNCc1cc(-c2cccnc2F)c(S(=O)(=O)c2ccccc2)s1 [Example 2, hydrochloride] | 7.49 |
| CNCc1cc(S(=O)(=O)c2ccc(C)nc2)n(-c2cccc(F)c2F)n1 [Example 99] | 7.12 |
| CNCc1cc(S(=O)(=O)c2cccnc2)n(-c2cccc(F)c2F)n1 [Example 98] | 6.66 |
| CNCc1cc(-c2ccccc2F)c(S(=O)(=O)c2cccc(OC)c2)s1 [Example 4, fumarate] | 7.19 |
| CNCc1cc(S(=O)(=O)c2cccnc2)c(-c2cccnc2F)s1 [Example 65] | 6.60 |

src = patent US20090156642A1
